- subject-of-test: T1, human TIGIT on Jurkat cells (TIGIT/NFAT reporter Jurkat cells, BPS Bioscience #60538); Promega TIGIT Effector … (human, UniProt Q495A1 22-244)
- T1 sequence (looked up): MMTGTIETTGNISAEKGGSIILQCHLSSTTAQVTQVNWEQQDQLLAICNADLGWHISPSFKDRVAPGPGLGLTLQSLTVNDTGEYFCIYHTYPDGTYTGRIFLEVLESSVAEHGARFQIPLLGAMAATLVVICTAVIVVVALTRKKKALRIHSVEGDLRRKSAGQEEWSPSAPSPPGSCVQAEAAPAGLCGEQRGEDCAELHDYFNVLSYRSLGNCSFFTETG
- measurement-description: cell-based or functional assay
metric: max. signal (% of 22G2)

Some entries whose results are on file:
binder: 43586p2.D11 (scFv, V domains shown) VH: EVQLLESGGGLVQPGGSLRLSCAASGFTFDDYVMSWVRQAPGKGLEWVSLINWSGGTTYYADSVKGRFTISRDNSKNTLYLQMNSLRAEDTAVYYCAKHWIVYQYGMDVWGQGTTVTVSS VL: QSVLTQPSSASGTPGQRVAISCSGTISNIETKYVSWYKYVSWYQQLPGTAPKLLIYNNVQRPSGVPDRFSGSQSGTSASLAISGLQSEDEAHYYCASWEGGLNSWVFGGGTKLTVL
max. signal (% of 22G2): 102 % of 22G2
--
binder: 43586p1.2.E6 (scFv, V domains shown) VH: EVQLLESGGGLVQPGGSLRLSCAASGFTVSDHYMSWVRQAPGKGLEWVSTTSSTSWKNYTYYADSVKGRFSISRDNSENTLYLQMNGLRAEDTAVYYCAKGSYGMDVWGQGTTVTVSS VL: QSVLTQPPSASGTPGQRVTISCSGSNFNIGTKYLYWYQQLPGTAPKLLIYLDSQRPSGVPDRFSTSKSGTSASLAISGLQSEDEADYYCALWDDHLHGWVFGGGTKLTVL
max. signal (% of 22G2): 97 % of 22G2
--
binder: 43586p1.2.E4 (scFv, V domains shown) VH: EVQLLESGGGLVQPGGSLRLSCAASGFTFSDYLMTWVRQAPGKGLEWVSTITWDGDRTYYADSVKGRFTISRDNSKNTLYLQMNSLRAEDTAVYYCAKHWTVFQYGMDVWGQGTTVTVSS VL: QSVLTQPPSASGTPGQRVTISCSGTISNIEIKYVSWYQQLPGTAPKLLIYGNHQRPSGVPDRFSGSKSGTSASLAISGLQSEDEADYYCSSWENDLKSWVFGGGTKLTVL
max. signal (% of 22G2): 113 % of 22G2
--
binder: 43586p1.1.A7 (scFv, V domains shown) VH: EVQLLESGGGLVQPGGSLRLSCAASGFTFTSYAMSWVRQAPGKGLEWVAGISYDGSIQYYADSVKGRLTISRDNSKNTLNLQMNSLRAGDTAVYYCAKHLTGGTTDYYYYGMDVWGQGTTVTVSS VL: QSVMTQPPSASGTPGQRVTISCSGSSSNIGTNRYVHWYKQVPGTAPKLLIYGNHQRPSGVPDRFSGSKSGTSASLAISGLQSEDEADYYCAAWDGSLSGWVFGGGTKLTVL
max. signal (% of 22G2): 89 % of 22G2

Now turn to the next binder.
Please give the measured max. signal (% of 22G2) for this binder: 43645p1.D3 (scFv, V domains shown) VH: EVQLLESGGGLVQPGGSLRLSCAASGFTFSSYWMSWVRQAPGKGLEWVSGIHISDSTYYADSVKGRFTISRDNSKNTLYLQMNSLRAEDTAVYYCAKGHTVLQYGMDVWGQGTTVTVSS VL: QSGLTQPPSASGTPGQRVTISCSGDISNTRNNYVSWYQQLPGTAPKLLIYGNHQRPSGVPDRFSGSKSATSASLAISGLQSEDEADYYCGTWDNTLNAWVFGGGTKLTVL 115 % of 22G2
